Source of measurements: BindingDB's records for patent US20250074891

Here we list compounds with their recorded Kd when tested on Receptor-interacting serine/threonine-protein kinase 3 (Homo sapiens, UniProt Q9Y572).
Sequence (Q9Y572 whole entry): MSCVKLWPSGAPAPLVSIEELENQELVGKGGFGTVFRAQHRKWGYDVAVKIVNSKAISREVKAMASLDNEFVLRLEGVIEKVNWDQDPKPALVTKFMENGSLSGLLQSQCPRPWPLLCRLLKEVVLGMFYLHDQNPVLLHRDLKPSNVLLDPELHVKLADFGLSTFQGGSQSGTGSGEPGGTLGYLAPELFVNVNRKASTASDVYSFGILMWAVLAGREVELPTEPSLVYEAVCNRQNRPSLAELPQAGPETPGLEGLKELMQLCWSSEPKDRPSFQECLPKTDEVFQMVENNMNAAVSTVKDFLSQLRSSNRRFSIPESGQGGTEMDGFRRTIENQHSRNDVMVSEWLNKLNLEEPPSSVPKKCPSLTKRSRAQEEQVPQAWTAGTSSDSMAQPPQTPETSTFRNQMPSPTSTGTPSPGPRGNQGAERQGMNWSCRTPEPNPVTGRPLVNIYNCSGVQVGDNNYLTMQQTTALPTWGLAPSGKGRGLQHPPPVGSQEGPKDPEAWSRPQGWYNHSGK

Recorded results for 2 compounds are shown here.
>>> df
                                   compound                         target_under_test  quantity_measured  reported_measurement
0  CCOc1nccc(Nc2[nH]nc(-c3ccc(NS(=O)(=O)CC)cc3)c2C(N)=O)n1 [US20250074891, Compound 98]  Receptor-interacting serine/threonine-protein kinase 3 (Homo sapiens, UniProt Q9Y572)                 Kd               > 30 µM
1  C[C@H](Oc1cc(-c2n[nH]c(Nc3cc(C4(C)CCOCC4)on3)c2C(N)=O)ccc1NS(=O)(=O)C(F)F)c1ccc(F)cc1 [US20250074891, Compound 301]  Receptor-interacting serine/threonine-protein kinase 3 (Homo sapiens, UniProt Q9Y572)                 Kd               > 30 µM

Kindly consider the entry below.
Look up Kd for this compound: NC(=O)c1c(-c2ccc(NS(=O)(=O)CC(F)(F)F)c(OCc3ccc(F)cc3)c2)n[nH]c1Nc1cccc(C(F)(F)F)n1
> 30 µM
